Molecular target: T1, IL-7 receptor (IL-7Rα/γc heterodimer) on primary human T cells (human, UniProt P16871 21-459; P31785 23-369)
T1 sequence (looked up) 1: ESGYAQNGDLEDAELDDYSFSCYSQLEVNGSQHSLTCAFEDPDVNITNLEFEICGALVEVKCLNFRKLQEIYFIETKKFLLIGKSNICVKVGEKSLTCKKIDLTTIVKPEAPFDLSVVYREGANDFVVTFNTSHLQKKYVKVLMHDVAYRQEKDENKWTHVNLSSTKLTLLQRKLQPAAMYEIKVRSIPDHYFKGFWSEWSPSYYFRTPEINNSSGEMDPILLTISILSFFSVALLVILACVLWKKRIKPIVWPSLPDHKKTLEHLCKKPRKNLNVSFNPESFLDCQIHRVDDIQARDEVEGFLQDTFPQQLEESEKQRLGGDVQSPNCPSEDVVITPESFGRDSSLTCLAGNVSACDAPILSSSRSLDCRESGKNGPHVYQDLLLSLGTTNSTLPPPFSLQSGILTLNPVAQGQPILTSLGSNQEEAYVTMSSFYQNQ
T1 sequence (looked up) 2: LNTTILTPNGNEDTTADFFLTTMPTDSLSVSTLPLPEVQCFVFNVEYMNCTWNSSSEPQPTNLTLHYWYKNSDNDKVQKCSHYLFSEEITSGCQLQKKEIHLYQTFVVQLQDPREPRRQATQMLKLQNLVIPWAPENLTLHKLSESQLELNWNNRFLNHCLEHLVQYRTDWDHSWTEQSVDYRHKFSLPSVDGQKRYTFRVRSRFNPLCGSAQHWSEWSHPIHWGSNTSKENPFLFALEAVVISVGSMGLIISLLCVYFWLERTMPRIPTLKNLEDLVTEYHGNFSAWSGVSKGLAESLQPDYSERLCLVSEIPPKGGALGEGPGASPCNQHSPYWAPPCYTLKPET
Experiment: cell-based or functional assay
Bridges are numbered along the chain shown (N, C = ends). [ ]: non-standard residue; d: D form. glutaryl‑PEG9‑azide = glutaryl-PEG9-azide group on the N-terminal amine; L6P = lysine side chain carrying PEG6-NH2 (diglycolyl-PEG-amine); hSer = N[C@@H](CCO)C(=O)O; Nle = CCCC[C@H](N)C(=O)O
The reader will find reported EC50 pSTAT5, CD8 Naive values listed item by item below.
Answer with a number only, understood to be in nM.

In the examples that follow, each entry is paired with its recorded EC50 pSTAT5, CD8 Naive.
CMP-106, recombinant IL-7 V15W with His-tag (ligand, V15W is already in the entry, which also includes the C-terminal His-tag; also called IL-7 V15W (Recomb-HIS6)) DCDIEGKDGKQYESWLMVSIDQLLDSMKEIGSNCLNNEFNFFKRHICDANKEGMFLFRAARKLRQFLKMNSTGDFDLHLLKVSEGTTILLNCTGQVKGRKPAALGEAQPTKSLEENKSLKEQKKLNDLCFLKRLLQEIKTCWNKILMGTKEHVDHHHHHH; 1.28
CMP-202, synthetic IL-7 variant of Example 2W (ligand, disulfide 34-129, 47-141) {glutaryl‑PEG9‑azide}-DSDIEGKDGKQYESVL[Nle]VSIDQLLDS[Nle]KEIGSNCL[hSer]NEFNFFKRHICDANKEG[Nle]FLFRAARKLRQFLK[Nle]NSTGDF[hSer]LHLLK(L6P)VSENTTILLNSTGQVKGRKPAALGEAQPTKSL[hSer]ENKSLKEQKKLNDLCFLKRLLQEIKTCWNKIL[Nle]GTKEH-NH2; 20.4

Then this binder:
## Task For the binder CMP-111, synthetic IL-7 K81(L6P), G85N of SEQ ID NO: 8 with glutaryl-PEG9-azide at the N-terminus (ligand, disulfide 34-129, 47-141, 2-92) {glutaryl‑PEG9‑azide}-DCDIEGKDGKQYESVL[Nle]VSIDQLLDS[Nle]KEIGSNCL[hSer]NEFNFFKRHICDANKEG[Nle]FLFRAARKLRQFLK[Nle]NSTGDF[hSer]LHLLK(L6P)VSENTTILLNCTGQVKGRKPAALGEAQPTKSL[hSer]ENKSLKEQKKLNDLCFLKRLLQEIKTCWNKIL[Nle]GTKEH-NH2 , report EC50 pSTAT5, CD8 Naive.
## Result 12.3
